Target: JAK1 (Homo sapiens)
Construct: 5 μl of catalytic domain recombinant Kinase enzyme+Tyr peptide substrate (Invitrogen, Calif.)
Sequence (P23458 875-1153 limits assumed): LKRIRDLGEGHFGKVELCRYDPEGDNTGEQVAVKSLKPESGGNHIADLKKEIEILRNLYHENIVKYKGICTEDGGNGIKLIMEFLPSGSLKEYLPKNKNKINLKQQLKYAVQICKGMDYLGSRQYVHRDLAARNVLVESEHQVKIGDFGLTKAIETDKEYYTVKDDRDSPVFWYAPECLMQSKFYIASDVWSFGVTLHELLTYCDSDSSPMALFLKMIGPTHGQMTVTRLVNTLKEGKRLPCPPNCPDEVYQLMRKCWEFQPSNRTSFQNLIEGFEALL
Assay: Z'-LYTE kinase assay, JAK1 tyrosine phosphorylation activity
Details: read-out: JAK 1 IC50
Readout Type: IC50

Examples with their reported IC50 follow.
{"columns": ["Compound", "IC50"],
 "data": [
  ["CC(=O)Nc1cccc(Nc2ncc(C(N)=O)c(N[C@@H](C)C(N)=O)n2)c1 [Example 85]", "100 to 1000 nM"],
  ["CC(=O)Nc1cccc(Nc2ncc(C(N)=O)c(NCc3ccc(Cl)c(Cl)c3)n2)c1 [Example 70]", "> 1000 nM"],
  ["CC(=O)Nc1cccc(Nc2ncc(C(N)=O)c(NC3Cc4ccccc4C3)n2)c1 [Example 92]", "10 to 100 nM"],
  ["NC(=O)c1cnc(Nc2cccc(NC(=O)N3CCOCC3)c2)cc1NCc1cccnc1 [Example 319]", "> 1000 nM"],
  ["C[C@@H](Nc1nc(Nc2cccc(NC(=O)N3CC=CC3)c2)ncc1C(N)=O)c1ccccc1 [Example 121]", "100 to 1000 nM"],
  ["CC(=O)Nc1cccc(Nc2ncc(C(N)=O)c(NC[C@H](C)O)n2)c1 [Example 82]", "100 to 1000 nM"],
  ["NC(=O)c1cnc(Nc2ccc(F)c(NC(=O)N3CCC3)c2)nc1NCc1ccccc1 [Example 234]", "10 to 100 nM"],
  ["CC[C@H](C)[C@@H](CO)Nc1nc(Nc2cccc(NC(C)=O)c2)ncc1C(N)=O [Example 73]", "10 to 100 nM"]
]}

INPUT: Using known records, supply IC50 for CNC(=O)Nc1cc(Nc2ncc(C(N)=O)c(NCc3ccccc3)n2)ccc1Cl [Example 131]
OUTPUT: > 1000 nM

INPUT: Return IC50 (reported value) for this compound: CC(=O)N(C)c1cccc(Nc2ncc(C(N)=O)c(N[C@H](C)c3ccccc3)n2)c1 [Example 87]
OUTPUT: 100 to 1000 nM

INPUT: Tell us which IC50 value is on record for CC(=O)Nc1cc(Nc2ncc(C(N)=O)c(NCc3ccccc3)n2)ccc1C [Example 155]
OUTPUT: 10 to 100 nM

INPUT: Hello, please tell me recorded IC50 for this one: COCC(=O)Nc1cccc(Nc2ncc(C(N)=O)c(NCc3ccc(Cl)c(Cl)c3)n2)c1 [Example 46]
OUTPUT: > 1000 nM

INPUT: Please list IC50 recorded for the compound NC(=O)c1cnc(Nc2cc(NC(=O)N3CCCC3)ccc2F)nc1NCc1ccccc1 [Example 204]
OUTPUT: 100 to 1000 nM

INPUT: Identify IC50 associated with the compound CCNC(=O)Nc1cc(Nc2ncc(C(N)=O)c(NCc3ccccc3)n2)ccc1Cl [Example 153]
OUTPUT: 100 to 1000 nM

###

Property: IC50; scope: individual compounds
Molecular target: JAK3 (Homo sapiens)
Construct: 5 μl of catalytic domain recombinant Kinase enzyme+Tyr peptide substrate (Invitrogen, Calif.); purchased Invitrogen
Sequence (P52333 822-1111 limits assumed): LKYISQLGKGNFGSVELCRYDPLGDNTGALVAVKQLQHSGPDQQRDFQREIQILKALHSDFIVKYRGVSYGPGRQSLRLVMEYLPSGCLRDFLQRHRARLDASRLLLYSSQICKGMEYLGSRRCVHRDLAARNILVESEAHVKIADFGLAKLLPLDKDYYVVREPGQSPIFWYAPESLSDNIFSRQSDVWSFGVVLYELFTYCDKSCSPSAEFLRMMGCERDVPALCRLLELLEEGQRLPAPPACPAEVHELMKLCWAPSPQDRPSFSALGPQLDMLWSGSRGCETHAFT
Test: Z'-LYTE kinase assay, JAK3 tyrosine phosphorylation activity
Assay type: biochemical

Example entries begin here.
{"columns": ["Compound", "IC50"],
 "data": [
  ["CC(=O)Nc1cccc(Nc2ncc(C(N)=O)c(NCC3CCC3)n2)c1 [Example 262]", "1 to 10 nM"],
  ["CNc1nc(Nc2cccc(NC(=O)N3CCCC3)c2)ncc1C(N)=O [Example 133]", "10 to 100 nM"],
  ["CC(=O)Nc1cccc(Nc2ncc(C(N)=O)c(N[C@@H](CO)CC(C)C)n2)c1 [Example 62]", "10 to 100 nM"],
  ["CCOC(=O)Nc1cccc(Nc2ncc(C(N)=O)c(NC3CCCC3)n2)c1 [Example 24]", "10 to 100 nM"],
  ["NC(=O)c1cnc(Nc2cccc(NC(=O)Cc3cccnc3)c2)nc1NCc1ccccc1F [Example 297]", "1 to 10 nM"]
]}

INPUT: Report IC50, nothing else, for this compound: NC(=O)c1cnc(Nc2cccc(NC(=O)N3CCCC3)c2)nc1NCC1CCCC1 [Example 281]
OUTPUT: 100 to 1000 nM

INPUT: Given NC(=O)c1cnc(Nc2cccc(NC(=O)N3CCCCC3)c2)nc1NCc1ccccc1 [Example 218] , respond with its IC50.
OUTPUT: 1 to 10 nM

INPUT: Complete the entry with IC50 for COC[C@H]1CCCN1C(=O)Nc1cccc(Nc2ncc(C(N)=O)c(N[C@H](C)c3ccccc3)n2)c1 [Example 149]
OUTPUT: 1 to 10 nM

INPUT: Output IC50 of COCC(=O)Nc1cc(Nc2ncc(C(N)=O)c(NCc3ccccc3)n2)ccc1Cl [Example 106]
OUTPUT: 10 to 100 nM

INPUT: Report IC50 for COc1ccc(CNc2nc(Nc3cccc(NC(C)=O)c3)ncc2C(N)=O)cc1 [Example 68]
OUTPUT: 10 to 100 nM

INPUT: Specify measured IC50 for COCC(=O)N(C)c1cccc(Nc2ncc(C(N)=O)c(NCC3CC3)n2)c1 [Example 125] .
OUTPUT: 10 to 100 nM

INPUT: Assign IC50 to the following record: CC(=O)Nc1cccc(Nc2ncc(C(N)=O)c(Nc3cccc4nn(C)cc34)n2)c1 [Example 186]
OUTPUT: 10 to 100 nM
